- EXPERIMENTAL_PROTOCOL: reducers of endogenous Her2 protein level, primary screen, SKBR3 breast tumor cells, AlphaScreen, ATP viability (AID 461);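 note: percent of carrier control wells set as 100% viability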
- ASSAY_CONDITIONS: 18-24 h, measured here: SKBR3 viability, ATP luminescence, at 10 µM
READOUT_KIND: viability (%)
Supply the numeric figure in %, leaving out any unit text.

Example cases with answers are listed next.
O=C(CCCCCn1c(=S)[nH]c2cc3c(cc2c1=O)OCO3)N1CCN(Cc2ccccc2)CC1; 83
CCCC(=O)Nc1ccc(OCC(=O)OC)cc1; 99.5
Oc1c(Cl)cc(Cl)c2c1NCCC2; 71.5
O=C(NC1CCc2ccccc21)C1CCN(S(=O)(=O)c2ccc(-n3cnnn3)cc2)CC1 (stereo unspecified); 74.5
COc1ccc(N2CCN(Cc3cc(=O)oc4cc(C)c(Cl)c(C)c34)CC2)cc1; 93.5

Could you share which viability value was measured for COc1cccc2cc(C(=O)N3CCc4ccccc43)c(=O)oc12 ?
92

Ok, now CNc1ccc(C(O)(C(F)(F)F)C(F)(F)F)cc1C(O)(C(F)(F)F)C(F)(F)F
98

Another molecule to look at: COC(=O)/C=c1/s/c(=C(/C#N)C(=O)N2CCOCC2)n(-c2ccccc2)c1=O
116

Query Cc1cnc(C(=O)Nc2ccc(N3CCN(C(=O)OC(C)(C)C)CC3)cc2)cn1 next
109

And the next one, CCOC(=O)N1CCC(Nc2c(-c3ccc(C)cc3)c(=O)c2=O)CC1 ?
88.5

How about this molecule: c1ccc(-c2csc(N3CCCCCC3)n2)cc1
91.5
